biological target: UniProt:P10636; assay: MCE Phenols Library screening, tau biosensor cell seeding assay (AvZ); assay type: cell-based; details: average Z score of the two replicates, tau seeding
Use yes (1) when the recorded av Z is no lower than 0.3; use no (0) when it is lower.

molecule	group
CC(=O)OC(C)(C)CC(=O)O[C@H](CC=C(C)C)C1=CC(=O)c2c(O)ccc(O)c2C1=O [Beta-Acetoxyisovalerylshikonin]	no (0)
Oc1cc(O)c2c(c1)O[C@@]1(c3ccc(O)c(O)c3)Oc3cc(O)c4c(c3[C@@H]2[C@H]1O)O[C@H](c1ccc(O)c(O)c1)[C@@H](O)C4 [Procyanidin A1]	yes (1)
COc1ccc2cc1Oc1ccc(cc1)C[C@H]1c3cc(c(OC)cc3CCN1C)Oc1c(O)c(OC)cc3c1[C@@H](C2)N(C)CC3 [(R)-Fangchinoline]	yes (1)
CC1(C)C=Cc2c(ccc3c2OC[C@@H](c2ccc(O)cc2O)C3)O1 [Glabridin]	yes (1)
O=C(O)c1cc(O)c2c(c1)[C@H]([C@H]1c3cccc(O)c3C(=O)c3c(O)cc(C(=O)O)cc31)c1cccc(O)c1C2=O [Sennidin B]	no (0)
COc1cc2c(cc1O)CC[n+]1cc3c4c(ccc3cc1-2)OCO4 [Groenlandicine]	no (0)
COc1cc2oc(-c3ccccc3)cc(=O)c2c(O)c1OC [Mosloflavone]	no (0)

---

target: UniProt P10636; assay: MCE Phenols Library screening, tau biosensor cell seeding assay (AvZ); assay type: cell-based; conditions: average Z score of two replicates, Phenols Library screen
observable: av Z

COc1ccc(CCC(=O)c2ccc(O)cc2)c(OC)c1 -0.046
COc1ccc2c(=O)c(-c3ccc(O)cc3)coc2c1 0.098
O=C(O)Cc1cc(I)c(Oc2cc(I)c(O)c(I)c2)c(I)c1 -0.133
COC(=O)[C@]1(O)C[C@@H](O)[C@@H](O)[C@H](OC(=O)/C=C/c2ccc(O)c(O)c2)C1 -0.049

---

Property: av Z; scope: individual compounds
target: tau (Homo sapiens, UniProt P10636); test: MCE Phenols Library screening, tau biosensor cell seeding assay (AvZ); type: cell-based; conditions: average Z score of the two replicates, tau seeding
Sequence (P10636 623-695 limits assumed): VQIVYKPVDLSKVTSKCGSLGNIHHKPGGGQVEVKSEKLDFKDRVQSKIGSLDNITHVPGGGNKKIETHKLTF
observable: av Z

compound	observable	value measured
O=c1c(-c2ccc(O)cc2)coc2cc(O)cc(O)c12	av Z	0.296
CC(C)c1ccc2c(c1O)CC[C@H]1C3=C(CC[C@]21C)C(=O)OC3 [Triptophenolide]	av Z	0.225
COc1cc2ccc(=O)oc2c(OC)c1O	av Z	0.477
CC(=O)Cc1cc(=O)c2c(C)cc(O)c([C@@H]3O[C@H](CO)[C@@H](O)[C@H](O)[C@H]3O)c2o1	av Z	0.14
O=C(/C=C/c1ccccc1)c1ccc(O)cc1 [4'-Hydroxychalcone]	av Z	0.226
COc1cc(-c2coc3c([C@@H]4O[C@H](CO)[C@@H](O)[C@H](O)[C@H]4O)c(O)ccc3c2=O)ccc1O	av Z	0.236
COc1cc(-c2coc3cc4c(c(O)c3c2=O)OCO4)cc(O)c1OC	av Z	0.602
O=C(/C=C/c1ccc(O)c(O)c1)O[C@H]1[C@H](O)C[C@](O)(C(=O)O)C[C@H]1O	av Z	0.681
CC(C)=CCc1c(O)ccc(C(=O)[C@@H]2[C@@H](c3c(O)cc(O)c4c(=O)c(CC=C(C)C)c(-c5ccc(O)cc5O)oc34)C=C(C)C[C@H]2c2ccc(O)cc2O)c1O	av Z	0.156
CC(=O)c1c(O)c(C)c(O)c(Cc2c(O)c3c(c(C(=O)/C=C/c4ccccc4)c2O)OC(C)(C)C=C3)c1O	av Z	0.69
O=C(O)[C@H]1O[C@@H](Oc2cc(O)c3c(=O)cc(-c4ccccc4)oc3c2)[C@H](O)[C@@H](O)[C@@H]1O [Chrysin-7-O-glucuronide]	av Z	0.431
O=C(/C=C/c1ccc(O)cc1)c1ccc(O[C@@H]2O[C@H](CO)[C@@H](O)[C@H](O)[C@H]2O)cc1O	av Z	0.161
COc1c(O[C@@H]2O[C@H](C(=O)O)[C@@H](O)[C@H](O)[C@H]2O)cc2oc(-c3ccccc3)cc(=O)c2c1O [Oroxylin A-7-O-glucuronide]	av Z	0.127
COc1ccc(-c2cc(=O)c3c(O)c(OC)c(O)cc3o2)cc1OC	av Z	0.436
O=c1c2cc(O)c(O)cc2oc2c([C@@H]3O[C@H](CO)[C@@H](O)[C@H](O)[C@H]3O)c(O)cc(O)c12	av Z	0.422

---

target: tau (Homo sapiens); assay: MCE Phenols Library screening, tau biosensor cell seeding assay (AvZ); type: cell-based; conditions: average Z score of the two replicates, tau biosensor seeding, MCE Phenols Library screen
*1 amine or outer side, *2 acyl side, *3 side chain or, on linkers, in order; H or OH if unused. Where a SMILES comes first, the peptide text is derived from it. Bridges are numbered along the chain shown (N, C = ends). [ ]: non-standard residue; d: D form. hTyr(3S-OH,4S-OH,3'-OSO3H) = N[C@H](C(=O)O)[C@H](O)[C@@H](O)c1ccc(O)c(OS(=O)(=O)O)c1; Orn(4R-OH,5R-OH) = O=C([C@H](C[C@@H](O)[C@@H](O)N[*:3])N[*:1])[*:2]; Pro(3S-OH,4S-Me) = C[C@H]1CN[C@H](C(=O)O)[C@H]1O; Gln(3R-OH) = NC(=O)C[C@@H](O)[C@H](N)C(=O)O; Hyp = O=C(O)[C@@H]1C[C@@H](O)CN1
observable: av Z

compound	value measured
CCC1(O)C(=O)OCc2c1cc1n(c2=O)Cc2cc3cc(O)ccc3nc2-1 (racemic) [(±)-10-Hydroxycamptothecin]	2.4
COc1c(CC=C(C)C)c(O)cc2oc(=O)c(-c3ccc(O)cc3O)cc12 [Glycycoumarin]	0.808
COc1ccc(-c2coc3cc(O[C@@H]4O[C@H](CO)[C@@H](O)[C@H](O)[C@H]4O)ccc3c2=O)cc1O [Calycosin-7-O-?-D-glucoside]	0.924
C=CCc1cc(OC)c(O[C@@H](C)[C@H](O)c2ccc(O)c(OC)c2)c(OC)c1 [Myrislignan]	0.766
COc1c(O)cc(O)c2c(=O)cc(-c3ccccc3)oc12 [Wogonin]	0.982
C[C@@H]1O[C@@H](Oc2c(-c3ccc(O)cc3)oc3cc(O[C@@H]4O[C@@H](C)[C@H](O)[C@@H](O)[C@H]4O[C@@H]4O[C@H](CO)[C@@H](O)[C@H](O)[C@H]4O)cc(O)c3c2=O)[C@H](O)[C@H](O)[C@H]1O [Grosvenorine]	0.73
COc1cc(/C=C/c2cc(O)cc(O)c2)ccc1O [Isorhapontigenin]	0.935
COc1ccc(-c2coc3cc(O)c(OC)c(O)c3c2=O)cc1 [Irisolidone]	0.871
C[C@@H]1O[C@@H](OC[C@H]2O[C@@H](Oc3c(-c4ccc(O)cc4)oc4cc(O)cc(O)c4c3=O)[C@H](O[C@@H]3O[C@@H](C)[C@H](O)[C@@H](O)[C@H]3O)[C@@H](O)[C@H]2O)[C@H](O)[C@H](O)[C@H]1O [Mauritianin]	0.906
CC(C)=CCc1cc2c(=O)cc(-c3ccc(O)cc3)oc2cc1O [Licoflavone A]	0.78
COc1cc(C[C@@H](CO)[C@H](CO)Cc2ccc(O)c(OC)c2)ccc1O [Secoisolariciresinol]	0.899
COc1ccc(-c2cc(=O)c3c(O)cc(O[C@@H]4O[C@H](CO)[C@@H](O)[C@H](O)[C@H]4O[C@@H]4O[C@@H](C)[C@H](O)[C@@H](O)[C@H]4O)cc3o2)cc1O [Neodiosmin]	0.726
C[C@@H](O)[C@@H]1NC(=O)[C@@H](N)C[C@@H](O)[C@@H](O)NC(=O)[C@@H]2[C@@H](O)[C@@H](C)CN2C(=O)[C@H]([C@H](O)CC(N)=O)NC(=O)[C@H]([C@H](O)[C@@H](O)c2ccc(O)c(OS(=O)(=O)O)c2)NC(=O)[C@@H]2C[C@@H](O)CN2C1=O [FR179642] (H-[Orn(4R-OH,5R-OH)]T[Hyp][hTyr(3S-OH,4S-OH,3'-OSO3H)][Gln(3R-OH)][Pro(3S-OH,4S-Me)]; lactam 1-C)	0.991
O=c1cc(-c2ccc(O)cc2)oc2cc(O)c([C@@H]3O[C@H](CO)[C@@H](O)[C@H](O)[C@H]3O)c(O)c12 [Isovitexin]	1.361
Oc1cccc2ccccc12 [1-Naphthol]	1.267
O=c1cc(-c2ccccc2)oc2c(O)c(O)ccc12 [7,8-Dihydroxyflavone]	1.17
O=c1c(O[C@@H]2O[C@@H](CO)[C@H](O)[C@H]2O)c(-c2ccc(O)c(O)c2)oc2cc(O)cc(O)c12 [Avicularin]	1.136
COc1cc(O)c2c(=O)cc(-c3ccc(O)cc3)oc2c1 [Genkwanin]	0.943
COc1cc([C@@H]2c3cc4c(cc3C[C@H]3COC(=O)[C@@H]32)OCO4)cc(OC)c1OC [Deoxypodophyllotoxin]	3.63
COC(=O)c1c2c(c3ccccc3c1O)OC(C)(C)C=C2 [Mollugin]	0.777
COc1cc(O)c2c(=O)c(-c3ccc(O)cc3)coc2c1 [Prunetin]	2.652
COc1ccc(-c2cc(=O)c3c(O)c(OC)c(OC)c(OC)c3o2)cc1 [Gardenin B]	0.892

# credit: paper PMC11784839
